assay info: AUC in rat at 0.5 mg/kg, iv
Format: ADME, organism-based
Design: dose 0.5 mg/kg, route intravenous
test context: plasma

{"columns": ["smiles structure", "AUC / ng·h/mL"],
 "data": [
  ["CN1CCC(C(=O)Nc2cc3cc[nH]c(=O)c3cc2Cl)CC1", 127],
  ["N[C@H]1CC[C@@H](C(=O)Nc2cc3cc[nH]c(=O)c3cc2Cl)CC1", 119],
  ["O=C(Nc1cc2cc[nH]c(=O)c2cc1Cl)C1CCNCC1", 161]
]}

###

Consider the following molecules and their measured AUC readings.
assay info: AUC in rat at 10 mg/kg, po
Format: ADME, organism-based
Parameters: dose 10 mg/kg, route oral
test context: plasma

{"columns": ["smiles structure", "units label", "AUC"],
 "data": [
  ["O=C(Nc1cc2cc[nH]c(=O)c2cc1Cl)C1CCNCC1", "ng·h/mL", 141],
  ["CN1CCC(C(=O)Nc2cc3cc[nH]c(=O)c3cc2Cl)CC1", "ng·h/mL", 1780],
  ["N[C@H]1CC[C@@H](C(=O)Nc2cc3cc[nH]c(=O)c3cc2Cl)CC1", "ng·h/mL", 338]
]}

###

assay info: Oral bioavailability in rat at 10 mg/kg
Assay type: ADME, organism-based
test context: in vivo
measured endpoint: bioavailability (%)

{"columns": ["smiles structure", "measured endpoint", "reading"],
 "data": [
  ["CN1CCC(C(=O)Nc2cc3cc[nH]c(=O)c3cc2Cl)CC1", "bioavailability", 70],
  ["N[C@H]1CC[C@@H](C(=O)Nc2cc3cc[nH]c(=O)c3cc2Cl)CC1", "bioavailability", 20],
  ["O=C(Nc1cc2cc[nH]c(=O)c2cc1Cl)C1CCNCC1", "bioavailability", 4.4]
]}
